B1: TRAF3IP2 (parent)
chain: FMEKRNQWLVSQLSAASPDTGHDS

Variants of: B1
Experiment: protein stability index of a GFP-peptide fusion (GPS, HEK-293T) (PSI 1-6); higher = more stable;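 further: lentivirally expressed fusions sorted by FACS into six bins by GFP to DsRed ratio, PSI derived from sequencing read proportions per bin multiplied by bin number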
Details: c terminus: a fixed tail appended
Attribute: protein stability index

Alteration: P18F
protein stability index: 1.9

Alteration: Q12K
protein stability index: 1.77

Alteration: R5D
protein stability index: 2.99

Alteration: G21I
protein stability index: 1.8

Alteration: F1K
protein stability index: 3.71

Alteration: Q7K
protein stability index: 3.36

Alteration: S14W
protein stability index: 1.89

Alteration: Q7N
protein stability index: 2.65

Alteration: N6I
protein stability index: 1.42

Alteration: L9E
protein stability index: 4.27

Alteration: G21A
protein stability index: 2.72

Alteration: T20I
protein stability index: 1.74

Alteration: A16D
protein stability index: 2.29

Alteration: N6W
protein stability index: 1.29

Alteration: T20A
protein stability index: 2.32

Alteration: K4F
protein stability index: 2.35

Alteration: A15L
protein stability index: 2.3

Alteration: S24H
protein stability index: 2.26

Alteration: L9K
protein stability index: 2.7

Alteration: E3W
protein stability index: 1.81

Alteration: E3R
protein stability index: 1.05

Alteration: N6P
protein stability index: 3.03

Alteration: D19I
protein stability index: 2.52

Alteration: A16E
protein stability index: 2.62

Alteration: Q7V
protein stability index: 1.81

Alteration: K4R
protein stability index: 2.54

Alteration: H22K
protein stability index: 2.39

Alteration: G21S
protein stability index: 2.18

Alteration: Q12C
protein stability index: 1.85

Alteration: P18G
protein stability index: 2.38

Alteration: D19E
protein stability index: 1.91

Alteration: W8H
protein stability index: 4.43

Alteration: S11K
protein stability index: 2.7

Alteration: A16G
protein stability index: 3.03

Alteration: H22G
protein stability index: 2.01

Alteration: E3K
protein stability index: 2.91

Alteration: S17Q
protein stability index: 2.63

Alteration: A15T
protein stability index: 2.7

Alteration: D19P
protein stability index: 2.33

Alteration: D23E
protein stability index: 2.49

Alteration: K4S
protein stability index: 2.24

Alteration: D19L
protein stability index: 1.92

Alteration: N6Y
protein stability index: 1.56

Alteration: G21F
protein stability index: 1.58

Alteration: H22P
protein stability index: 2.94

Alteration: G21M
protein stability index: 1.77

Alteration: V10P
protein stability index: 2.46

Alteration: H22Y
protein stability index: 1.94

Alteration: S14N
protein stability index: 2.58

Alteration: P18K
protein stability index: 2.42

Alteration: G21C
protein stability index: 1.8

Alteration: F1W
protein stability index: 3.17

Alteration: S11N
protein stability index: 3.18

Alteration: D23L
protein stability index: 1.81

Alteration: R5A
protein stability index: 1.97

Alteration: S17E
protein stability index: 2.88

Alteration: E3A
protein stability index: 3

Alteration: S17H
protein stability index: 2.73

Alteration: R5E
protein stability index: 3.5

Alteration: W8D
protein stability index: 5.06

Alteration: V10D
protein stability index: 4.18

Alteration: F1E
protein stability index: 4.77

Alteration: S11C
protein stability index: 2.22

Alteration: L9N
protein stability index: 3.44

Alteration: S24Y
protein stability index: 2.04

Alteration: N6M
protein stability index: 2.06

Alteration: N6V
protein stability index: 2.02

Alteration: G21E
protein stability index: 3.22

Alteration: D19Y
protein stability index: 1.41

Alteration: L9R
protein stability index: 2.08

Alteration: V10K
protein stability index: 3.41

Alteration: L9M
protein stability index: 2.36

Alteration: N6T
protein stability index: 1.83

Alteration: D19H
protein stability index: 2.2

Alteration: V10F
protein stability index: 1.29

Alteration: S24A
protein stability index: 2.4

Alteration: H22L
protein stability index: 2.29

Alteration: H22D
protein stability index: 2.87

Alteration: H22M
protein stability index: 2.15

Alteration: L9V
protein stability index: 1.71

Alteration: V10N
protein stability index: 3.46
